Tested on: MKN28
Procedure details: Cell viability drug screen, 12-point dose-response AUC
Type: cell-based, human
Condition: MKN28 cells; 72 hours; 12-point dose-response
Please respond with reported area under the viability curve (AUC), normalized for every item in the list.
Give bare numbers.

| Structure | Observed |
| --- | --- |
| CC(C)C[C@H](NC(=O)CNC(=O)c1cc(Cl)ccc1Cl)B(O)O | 0.5257 |
| CCCOc1ccc2nc(NC(=O)OC)[nH]c2c1 | −0.1307 |
| Cc1cnc(NC(=O)Nc2cc(Br)c(C)cc2OC[C@@H]2CNCCO2)cn1 | −0.1902 |
| CC(=O)O[C@H]1C(=O)[C@@]2(C)[C@H]([C@H](OC(=O)c3ccccc3)[C@]3(O)C[C@H](OC(=O)[C@H](O)[C@@H](NC(=O)c4ccccc4)c4ccccc4)C(C)=C1C3(C)C)[C@]1(OC(C)=O)CO[C@@H]1C[C@@H]2O | −0.2731 |
| COC(=O)Nc1nc2ccc(Sc3ccccc3)cc2[nH]1 | −0.7877 |
| CCCCc1nc2cc(/C=C/C(=O)NO)ccc2n1CCN(CC)CC | −0.5866 |
| CN(C)c1ccc(C(=C2C=CC(=[N+](C)C)C=C2)c2ccc(N(C)C)cc2)cc1 | 0 |
| Nc1cc(C(F)(F)F)c(-c2cc(N3CCOCC3)nc(N3CCOCC3)n2)cn1 | −0.0925 |
| Nc1ccc(-c2ccc3ncc4ccc(=O)n(-c5cccc(C(F)(F)F)c5)c4c3c2)cn1 | 0.8861 |
| CC(C)C[C@H](NC(=O)[C@H](Cc1ccccc1)NC(=O)c1cnccn1)B(O)O | −0.416 |

Respectfully, I request area under the viability curve (AUC), normalized for each entry included below.
1. C[C@@H]1O[C@@H](O[C@H]2C[C@@H](O)[C@]3(CO)[C@H]4[C@H](O)C[C@]5(C)[C@@H](C6=CC(=O)OC6)CC[C@]5(O)[C@@H]4CC[C@]3(O)C2)[C@H](O)[C@H](O)[C@H]1O
2. C/C(=C\c1csc(C)n1)[C@@H]1C[C@@H]2O[C@@H]2CCC[C@H](C)[C@H](O)[C@@H](C)C(=O)C(C)(C)[C@@H](O)CC(=O)O1

Solution:
1: −0.5183; 2: −1.4393

* * *

System: NCC19
Procedure details: Cell viability drug screen, 12-point dose-response AUC
Assay type: cell-based, human
Condition: NCC19 cells; 72 hours
Mark criterion met only for Average Area Under the Viability Curve (AUC), AUC norm value values smaller than 2; exact matches and larger values are criterion not met.

Exercise: Is the reported Average Area Under the Viability Curve (AUC), AUC norm value for Cn1cc(CNCC2CCN(c3ncc(C(=O)NO)cn3)CC2)c2ccccc21 [JNJ-26481585] strictly below 2?
Solution: criterion met

Exercise: I'd appreciate it if you could check whether CC(C)C[C@H](NC(=O)[C@H](CCc1ccccc1)NC(=O)CN1CCOCC1)C(=O)N[C@@H](Cc1ccccc1)C(=O)N[C@@H](CC(C)C)C(=O)[C@@]1(C)CO1 [Carfilzomib (PR-171), Carfilzomib] has Average Area Under the Viability Curve (AUC), AUC norm value smaller than 2.
Solution: criterion met

Exercise: Could you please tell me whether Average Area Under the Viability Curve (AUC), AUC norm value recorded for CCC[C@H](NC(=O)/C(C#N)=C/c1cccc(Br)n1)c1ccccc1 [WP1130] is less than 2?
Solution: criterion met

Exercise: Problem: For the molecule CC[C@@H]1C(=O)N(C)c2cnc(Nc3ccc(C(=O)N[C@H]4CC[C@H](N5CCN(CC6CC6)CC5)CC4)cc3OC)nc2N1C(C)C [BI6727 (Volasertib), Volasertib] , is Average Area Under the Viability Curve (AUC), AUC norm value under 2?
Solution: criterion not met

Exercise: A record lists COC(=O)Nc1nc2ccc(C(=O)c3cccs3)cc2[nH]1 [Nocodazole] . Is its Average Area Under the Viability Curve (AUC), AUC norm value below 2?
Solution: criterion met

Exercise: Regarding O=C(Nc1ccc([N+](=O)[O-])cc1Cl)c1cc(Cl)ccc1O [Niclosamide (Niclocide), Niclosamide] , kindly confirm whether its Average Area Under the Viability Curve (AUC), AUC norm value is beneath 2.
Solution: criterion not met

Measured values drawn from patent US20250129430A1 for this set.
